The entries below come with measured Max activity values attached.
target: GLP-1R (Homo sapiens, UniProt P43220); assay: Agonist activity on GLP-1R, HTRF cAMP detection in stably transfected GLP-1R/HEK293 cells; assay type: cell-based; details: relative to top concentration of reference GLP-1(7-37)
Sequence (P43220 24-463): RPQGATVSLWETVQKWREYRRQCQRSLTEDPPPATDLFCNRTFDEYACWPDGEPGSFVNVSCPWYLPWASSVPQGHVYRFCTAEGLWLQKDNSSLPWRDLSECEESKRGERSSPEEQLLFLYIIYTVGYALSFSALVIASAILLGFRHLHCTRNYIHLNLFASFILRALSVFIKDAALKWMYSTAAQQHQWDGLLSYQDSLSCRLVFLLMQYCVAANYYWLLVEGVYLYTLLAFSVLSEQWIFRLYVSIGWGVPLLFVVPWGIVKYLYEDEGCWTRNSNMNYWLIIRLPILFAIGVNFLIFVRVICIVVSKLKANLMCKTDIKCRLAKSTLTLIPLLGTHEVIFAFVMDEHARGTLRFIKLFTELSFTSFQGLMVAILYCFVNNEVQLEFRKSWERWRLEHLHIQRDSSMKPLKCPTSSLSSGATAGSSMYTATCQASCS
The response must be a number in % with no trailing unit.

# example entries with known answers
CCn1cncc1Cn1c(CN2CCC(Oc3cccc(CSc4ccc(Cl)cc4F)n3)CC2)nc2ccc(C(=O)O)cc21 [Compound C9]	97.2
O=C(O)c1cc(F)c2nc(CN3CCC(Oc4cccc(COc5ccc(Cl)cc5F)n4)CC3)n(C[C@@H]3CCO3)c2c1 [Compound C23]	109.1
N#Cc1ccc(OCc2nc(OC3CCN(Cc4nc5ccc(C(=O)O)cc5n4C[C@@H]4CCO4)CC3)ccc2F)c(F)c1 [Compound C83]	111.1
Cc1cc(C(=O)O)cc2c1nc(CN1CCC(Oc3cccc(COc4ccc(C#N)cc4F)c3)CC1)n2C[C@@H]1CCO1 [Compound C36]	104.0

**Query** Test system GLP-1R (Homo sapiens, UniProt P43220); read-out Max activity; what value for N#CCC1(Cn2c(CN3CCC(Oc4cccc(COc5ccc(Br)cc5F)n4)CC3)nc3ccc(C(=O)O)cc32)CC1 [Compound C26] ?
**Result** 117.3

**Query** Test system GLP-1R (Homo sapiens, UniProt P43220); read-out Max activity; what value for CCn1cncc1Cn1c(CN2CCC(Oc3cccc(OCc4ccc(C#N)cc4F)n3)CC2)nc2ccc(C(=O)O)cc21 [Compound S4] ?
**Result** 106.9

**Query** Test system GLP-1R (Homo sapiens, UniProt P43220); read-out Max activity; what value for O=C(O)c1ccc2nc(CN3CCC(Oc4cccc(COc5ccc(Br)cc5F)n4)CC3)n(C[C@@H]3CCO3)c2c1 [Compound C4] ?
**Result** 147.9

**Query** Test system GLP-1R (Homo sapiens, UniProt P43220); read-out Max activity; what value for O=C(O)c1ccc2nc(CN3CCC(Oc4cccc(COc5ccc(Cl)cc5F)n4)CC3)n(C[C@@H]3CCO3)c2c1 [Compound 49] ?
**Result** 129.3

**Query** Test system GLP-1R (Homo sapiens, UniProt P43220); read-out Max activity; what value for CCn1nc(C)cc1Cn1c(CN2CCC(Oc3cccc(COc4ccc(C#N)cc4F)n3)CC2)nc2ccc(C(=O)O)cc21 [Compound C40] ?
**Result** 90.7

**Query** Test system GLP-1R (Homo sapiens, UniProt P43220); read-out Max activity; what value for CCn1cncc1Cn1c(CN2CCC(Oc3cccc(OCc4ccc(C#N)cc4F)c3)CC2)nc2ccc(C(=O)O)cc21 [Compound S23] ?
**Result** 98.0
